Measured values drawn from PubChem BioAssay AID1745848 for this set.

- assay: Confirmatory qHTS for Inhibitors of ATXN expression; further: nearly all actives have a fitted effect of over 65% in size; further: potency means the concentration at half of the fitted maximal effect
- settings: ATXN2-luciferase reporter cells, luminescence, 24 h; series mostly up to 11.5 µM
In all, about 2,100 compounds went through this assay and about 940 (45%) were called active. Inconclusive results (about 48%) are left out. The set was probably picked from earlier hits. The list shows a part of the results.
measure name: Potency

Some solved cases for reference:
>  <compound>
c1ccc(Cn2c(-c3ccccc3)c[n+]3c2SCCC3)cc1

>  <Potency>
inactive

$$$$
>  <compound>
COc1ccc(OCc2cccc(C(=O)Nn3cc([N+](=O)[O-])cn3)c2)cc1

>  <Potency>
0.398 µM (active)

$$$$
>  <compound>
O=C(Nc1ccc[n+](CC(=O)c2cccc3ccccc23)c1)c1ccccc1

>  <Potency>
3.55 µM (active)

$$$$
>  <compound>
Cc1cc2c(c(/C=C/C(=O)c3ccccc3)c1)OC1(C=C2)Oc2ccccc2C(=O)N1C (stereo unspecified)

>  <Potency>
25.1 µM (active)

$$$$
>  <compound>
COc1cc(C(=O)OC(C)C(=O)N2CCc3ccccc3C2)ccc1OCC(=O)N1CCOCC1 (stereo unspecified)

>  <Potency>
inactive

$$$$

**Query** Recorded Potency for "O=C(Oc1c(CN2CCOCC2)cc(Cl)c2cccnc12)c1ccccc1" , please?
**Result** 3.55 µM (active)

**Query** Which value of Potency has been reported for "COC(=O)c1ccccc1COc1cccn2c(N(C)Cc3cccs3)c(C)nc12" in the records?
**Result** 28.2 µM (active)

**Query** Which Potency is reported for this compound? "Cc1[nH]c2ccccc2c1C1=NNC(=Nc2ccc(F)cc2)SC1"
**Result** 31.6 µM (active)

**Query** Sample "C=CCc1cccc(/C=N/NC(=O)CNc2ccccc2)c1O" — what was its Potency?
**Result** 2.82 µM (active)

**Query** # input compound: "CN1C(=O)/C(=C\c2ccccc2F)Sc2ccc(C(=O)NC3CCN(Cc4ccccc4)CC3)cc21" ; wanted: its Potency
**Result** 3.16 µM (active)

**Query** Fill in the blank: the reported Potency of "C=CCc1cccc(/C=N/NC(=O)CNc2ccccc2OC)c1O" is ____.
**Result** 5.01 µM (active)

**Query** Sample CC(C)(C)c1ccc(CC(=O)N2CCC2(C)C(=O)Nc2cnc3ccccc3c2)cc1 (stereo unspecified) — what was its Potency?
**Result** inactive

**Query** Entry under review: "C=CCc1ccccc1OCC(=O)N/N=C/c1ccc(OC(C)=O)cc1OC(C)=O" . Reported Potency?
**Result** 15.8 µM (active)

**Query** Which Potency is listed for "Cc1ccc(CN2CCSc3ccc(C(=O)NC4CCN(Cc5ccccc5)CC4)cc32)cc1" ?
**Result** 3.16 µM (active)

**Query** So what's the measured Potency for this one? "COc1ccc(C)cc1Nc1nc(N)c2cc(OC)c(OC)cc2n1"
**Result** 2.82 µM (active)

**Query** May I ask what Potency has been recorded for c1ccc2c(c1)c1c(c3ccccc32)CN2CCCC2C1 (stereo unspecified) ?
**Result** inactive

**Query** Which Potency value belongs to "Cc1ccc(/C=C2\SC(=S)N(CCCC(=O)Nc3cccnc3)C2=O)cc1" ?
**Result** 2.24 µM (active)

**Query** Any idea what Potency was measured for COc1cc(OC)c(OC)cc1/C=C1\CC(C)C/C(=C\c2cc(OC)c(OC)cc2OC)C1=O (stereo unspecified) ?
**Result** 14.1 µM (active)

**Query** Can you look up the measured Potency of "O=C(Oc1c(CN2CCOCC2)cc(Cl)c2cccnc12)c1cccs1" for me?
**Result** 11.2 µM (active)

**Query** # input compound: "CCOC(=O)N(C)c1c(CC)nc2c(OCc3ccccc3OC)cccn12" ; wanted: its Potency
**Result** inactive

**Query** Potency for "COc1ccc(C(=O)C=CNNC(=O)c2ccc(Cl)cc2)cc1" ?
**Result** 14.1 µM (active)
